# procedure-details: soluble fraction after stress (log2 fold change); higher = more stays soluble; pooled small domains, quantitative proteomics
# assay-conditions: stress: pH 4
sequences and their reported soluble fraction (log2)
Keep the answer to the number alone.

{"residue-codes": "HMQQDVLKLKSGGNYKGEYINIESAYVLFKPEGGNATQRIKVNEIQMLKLADGTEVIFGGRVK", "soluble fraction (log2)": 0.297}
{"residue-codes": "HMGISVEVPDLKNMSVAEAGSLLKNSGLSYAVVDSDYVKTISPGKILDQNPGRGLRVKKGRIVYLTINSL", "soluble fraction (log2)": -0.283}

QUERY: May I ask what soluble fraction (log2) has been recorded for `HMSYKFDSLAIILNKLDGKETVNVSSLSDELEVSARTVHRYIGTLQVAGFPIEYDKTKNSYIFSEGYTL` ?
RESULT: -1.05

QUERY: May I ask what soluble fraction (log2) has been recorded for `HMWVETITTKAGITKYKFQERYTDTYSGKTKRVSVTYTSNSRQAYKLAQAELQKKIDLATNTD` ?
RESULT: 0.112

====

sequences and their reported soluble fraction (log2)
# procedure-details: soluble fraction after stress (log2 fold change); higher = more stays soluble; pooled small domains, quantitative proteomics
# assay-conditions: stress: pH 4
Keep the answer to the number alone.

{"residue-codes": "HMASALDVALNDFAEMRKKMRKPLTDRALALTLSELEKLAPGNDEKKIAILNQSIQRGWQGVFPLK", "numeric-readout": 0.0901}
{"residue-codes": "HMDNRLFKMLYYLLDKERATAPELAAEFEVSTRTIYRDVEALSSAGIPIYAEPGRNGGIYLLQD", "numeric-readout": -1.1}
{"residue-codes": "HMYVADVVGMGIKDALYILENQGLRVVFTGKGVVKNQSIAVGEKIIKGEKIVLML", "numeric-readout": -0.723}
{"residue-codes": "HMRGLLSQREHDVLDLVARGFSYGEIARLRSISVSTVQTHIKNLYRKLAVSSRTEAVYEAKQMGI", "numeric-readout": -0.755}
{"residue-codes": "HMKYRPGDVVTLRVARMGEMGAFLDAGTGNTNDDILLHKMQQTEEIKAGQDVKVYLYLDPNRRLTASMKL", "numeric-readout": -0.0269}

QUERY: May I ask what soluble fraction (log2) has been recorded for `HMKEEVEILGGKATIYTNDYGVWQFRLWLTTDNKYVRKSLRTKVKDYAITEGEKLYIQIRSDIEKGIKYY` ?
RESULT: -0.077

QUERY: May I ask what soluble fraction (log2) has been recorded for `HMDDVIDVYATYDVSPTNQISNIKLYSDAAHANPVTGEAGKSYNDITEGHPGYQFRWSGTTWVPI` ?
RESULT: 0.0332

QUERY: May I ask what soluble fraction (log2) has been recorded for `HMSVPRPSAVEVTSLVTGVRDLLPHLGEGYVERVLVEFGFKVDETINALLEGNLPKHLQDLDPSLTKEI` ?
RESULT: -1.25

====

# procedure-details: soluble fraction after stress (log2 fold change); higher = more stays soluble; pooled small domains, quantitative proteomics
# assay-conditions: stress: pH 4
Please mark true if the recorded soluble fraction (log2) is equal to or greater than -0.03, and false if it falls below.

QUERY: Has `HMVYFDDEELDRFAGRAADSYTSDETDEFRDVMLTLLPADVMPWTQSIEMRGILLPEQLRDELLML` a recorded soluble fraction (log2) greater than or equal to -0.03?
RESULT: false

QUERY: Has `HMPGEIKKIPINSISYQDLKQHPYFDAYLAKQVIKYRETKGRIENIEQFREATRAYQSLIEKVTPYLDFE` a recorded soluble fraction (log2) greater than or equal to -0.03?
RESULT: false

QUERY: Has `HMKEINFTIEESAKGRLDKVIAENVADLTRSQVQSLIKKGQILVNDAPTTNRYQVKPNDQVIIKLPDPV` a recorded soluble fraction (log2) greater than or equal to -0.03?
RESULT: true

QUERY: Has `HMGGEEINMINLVGLSQSEAENQLAKLKLKIGQVTAEYSDKPSGTVLKQSISANNKVKKGADIDIVVSKG` a recorded soluble fraction (log2) greater than or equal to -0.03?
RESULT: true

====

# procedure-details: soluble fraction after stress (log2 fold change); higher = more stays soluble; pooled small domains, quantitative proteomics
# assay-conditions: stress: pH 4
readout-type: soluble fraction (log2)
Keep the answer to the number alone.

{"residue-codes": "HMDAGLAEIIRSFEDNLGGFPPAAREDLLGWREIFTDDLILLAIKKAALAGVRKWSYVNGILKVWKNEGVR", "soluble fraction (log2)": -1.09}
{"residue-codes": "HMEDPFLWVEKLGSSDWIEREESAEKLLEAGEASVEALRTALTHPDLEVRERVRELLSVISPL", "soluble fraction (log2)": -1.82}
{"residue-codes": "HMVDGTPALTDLKKVSKPGRRHYTGSQEIPRVLNGLGISIVSTSKGIMTGAQARRQKVGGELLAFV", "soluble fraction (log2)": 0.22}
{"residue-codes": "HMELKYIDYDEALVVYAKTVTASGGGLSGVKDEGGIRKVLDFVQNDLYYPTFVDKLTYLVFGL", "soluble fraction (log2)": -0.155}
{"residue-codes": "HMGPRPLPAEFTHPSLRALLALGTTRGGVTSADVKTALEAASVPAGRRAAVLRALDDNGIEVHTEP", "soluble fraction (log2)": 0.107}

QUERY: May I ask what soluble fraction (log2) has been recorded for `HMSSTPEPPQAVLDLVNLREQARAGKDWTQSDAFRQQIAALGWTVKDTKDGPVVSLSPTTTE` ?
RESULT: 0.105

QUERY: May I ask what soluble fraction (log2) has been recorded for `HMTVTMADISQAYNEKRYLTTISLSNTYLTFAKPTTELLSIRYRTYFIIGKYAESLTEIAKL` ?
RESULT: 0.22

QUERY: May I ask what soluble fraction (log2) has been recorded for `HMDPQDGTVKFFNGARGFGFITPDGGGADVFVHVSAVERAGLTQLVEGQRVNFQTLPDTKGKGPKAVNLKV` ?
RESULT: -0.531

QUERY: May I ask what soluble fraction (log2) has been recorded for `HMANTLDPMDLKQIISLHLDGFSNRKIGATLGISRNTVNTYMRLFSVSDYALKELLTLDNATLDKLFPS` ?
RESULT: -0.603

QUERY: May I ask what soluble fraction (log2) has been recorded for `HMANPEFAGYINGKPYFGPTHQHRGVKMLGATHTRNPHPLVWDSIAESLANYDSRFRWSGGQIL` ?
RESULT: -0.203

QUERY: May I ask what soluble fraction (log2) has been recorded for `HMIISMKKGATPQEISHVRKLIEELGYKVHESQGSERMVFGAIGDERSKHRLTSLEAQPGVEKVIPILA` ?
RESULT: 0.168

QUERY: May I ask what soluble fraction (log2) has been recorded for `HMNPGHAERGKEIVEVFLRNNGELSMREIAEKSNITITQARRRVNKLLDQGIVEATAPVQSRNRKYRIK` ?
RESULT: 0.0708

QUERY: May I ask what soluble fraction (log2) has been recorded for `HMDNVINDGMQVRFTGNVDINGTPLKIYDRIYTAEGISDDTVVLMLGNDVYARVYLSDVVPAD` ?
RESULT: -0.275

QUERY: May I ask what soluble fraction (log2) has been recorded for `HMEVADAAQRKILQALQVQPLTVEQLSQELRTDTGDLLVSLSMMEITGLIRREAGNTFLAVFAPK` ?
RESULT: -0.598

QUERY: May I ask what soluble fraction (log2) has been recorded for `HMTKSSAYLSAEKLINKKQYSDAIVKLNDALVTDSKNADIYNYLGFSHRKLGKMEDAAFFYNKALE` ?
RESULT: -0.165

QUERY: May I ask what soluble fraction (log2) has been recorded for `HMTALAVGDRVKMDKSATIYGTMRKFAAWVYATKLYVRGIDGNRVVVSTLKSGAITGAVDKKHLTK` ?
RESULT: -0.0515

QUERY: May I ask what soluble fraction (log2) has been recorded for `HMKNTADRVYENLFHMLVSGDYAPGDRIPSEHELKERFNVSRNTIRAALNRMNALGIIETRQGDGTYLKG` ?
RESULT: -0.147

QUERY: May I ask what soluble fraction (log2) has been recorded for `HMEPKIKQIVPNVVNYPVEDAKNVLVNSGLIVQIRGQGNIVYDQVPKGGAEVTRGTTVILDLNPPPGA` ?
RESULT: -0.768

QUERY: May I ask what soluble fraction (log2) has been recorded for `HMSSDDEAFKRELVGLIPHLRAFARTLTGDPTAADDLAQDAMMKAWDARASYQMGTNMKAWTFMILRNQFY` ?
RESULT: -1.65

QUERY: May I ask what soluble fraction (log2) has been recorded for `HMSEVPVLVAKTDIKELELIDDRKVTLINVPQKFKMPGSFNSPEEVYNTIAAVPIKEGEQITKPRVTWP` ?
RESULT: -0.443

QUERY: May I ask what soluble fraction (log2) has been recorded for `HMNLTLMDALKAAGLPVDGINLSMVNKMMEEQMPIDKTSLNQMYQLVQDNKDINVTTLVELKRLG` ?
RESULT: -0.393

QUERY: May I ask what soluble fraction (log2) has been recorded for `HMIGVNMEKSTVEKFANELNLPIDLLLKQLESAGIKKTSGAEELLEADKSALLNYLQIEHGA` ?
RESULT: -0.678

QUERY: May I ask what soluble fraction (log2) has been recorded for `HMKKHAPSLMRQIRRELKEGKSPESLLSKAKLISDSYYRSLSFYLLIPYLSPNSKQFQEAISLAGKDID` ?
RESULT: -0.216
